Sourced from patent US20100323016A1

assay_comment: Solubility of retigabine in aqueous solution at varying pH
Type: physicochemical
particulars: simulated gastric fluid; pH 1.5; aqueous solution at 37° C.; maximum solubility; read-out: solubility
endpoint_label: solubility

**Query** Return value of solubility for input `CCOC(=O)Nc1ccc(NCc2ccc(F)cc2)cc1N` , no commentary.
**Result** ~16 mg/mL

====

assay_comment: Solubility of retigabine in aqueous solution at varying pH
Assay type: physicochemical
particulars: simulated gastric fluid; pH 2.0; aqueous solution at 37° C.; read-out: solubility
endpoint_label: solubility

**Query** Return value of solubility for input `CCOC(=O)Nc1ccc(NCc2ccc(F)cc2)cc1N` , no commentary.
**Result** < 4000 µg/mL
